Where do these numbers come from? They come from paper PMC5889877.

System: adult rat ventricular myocytes
Assay: Cardiomyocyte viability, Alamar Blue
Format: cell-based
Details: 24 h treatment, read-out: LD50 (IC50) for cardiomyocyte viability
Measured IC50 values are reported for all entries that follow.
value_type: IC50 (nM)

compound="CC(=O)C=C(C)[O-].Cc1ccnc2c1ccc1c(C)ccnc12.O.O.O=[N+]([O-])[O-].[Cu+2] [Cas III-Ea]" target_entity="adult rat ventricular myocytes" value_type=IC50 endpoint_result=2000
compound="Cc1ccnc2c1ccc1c(C)ccnc12.NCC(=O)[O-].O.O.O=[N+]([O-])[O-].[Cu+2] [Cas II-gly]" target_entity="adult rat ventricular myocytes" value_type=IC50 endpoint_result=2000
